target: α9/α10 nAChR (Rattus norvegicus, UniProt P43144+Q9JLB5); construct: The coding region of the rat α10 gene; expressed in transfected cells; host or cells: Xenopus laevis oocytes (mRNA injection); assay: Two-electrode voltage-clamp on α9/α10 nAChR expressed in Xenopus oocytes; type: cell-based; settings: CaNFR (2 mM Ca2+), 100 μM ACh, peak currents; read-out: IC50 of block of α9/α10 nAChR current
Sequence (P43144 26-479): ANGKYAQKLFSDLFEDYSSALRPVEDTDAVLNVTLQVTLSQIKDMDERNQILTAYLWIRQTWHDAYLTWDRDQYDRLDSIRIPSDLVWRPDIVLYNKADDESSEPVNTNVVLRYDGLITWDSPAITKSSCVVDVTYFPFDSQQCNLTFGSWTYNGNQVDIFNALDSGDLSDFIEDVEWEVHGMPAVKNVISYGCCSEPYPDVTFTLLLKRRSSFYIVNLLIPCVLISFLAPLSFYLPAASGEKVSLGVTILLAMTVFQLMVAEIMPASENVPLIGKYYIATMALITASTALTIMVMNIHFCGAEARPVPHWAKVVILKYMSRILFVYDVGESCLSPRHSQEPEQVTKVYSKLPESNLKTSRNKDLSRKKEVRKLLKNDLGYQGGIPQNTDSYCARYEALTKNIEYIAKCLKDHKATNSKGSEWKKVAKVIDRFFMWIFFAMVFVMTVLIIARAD
Sequence (Q9JLB5 25-447): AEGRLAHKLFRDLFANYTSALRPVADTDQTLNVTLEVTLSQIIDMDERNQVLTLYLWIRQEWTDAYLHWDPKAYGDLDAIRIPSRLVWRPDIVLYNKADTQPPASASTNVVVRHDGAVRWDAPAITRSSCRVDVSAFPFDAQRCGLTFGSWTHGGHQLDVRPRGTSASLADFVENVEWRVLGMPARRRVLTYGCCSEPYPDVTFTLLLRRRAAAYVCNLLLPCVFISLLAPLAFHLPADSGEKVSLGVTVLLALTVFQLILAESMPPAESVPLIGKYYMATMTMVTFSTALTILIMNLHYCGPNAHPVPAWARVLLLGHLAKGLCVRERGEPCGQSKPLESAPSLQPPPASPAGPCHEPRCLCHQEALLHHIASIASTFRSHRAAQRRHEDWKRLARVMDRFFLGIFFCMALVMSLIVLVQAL
ASSAY METRIC: IC50 (nM)

{"columns": ["COMPOUND", "ASSAYED TARGET", "ASSAY METRIC", "READING UNIT", "QUANTITATIVE READOUT"],
 "data": [
  ["CC12CC3CC(C)(C1)CC(N)(C3)C2 [memantine, 3.5-dimethyl-1-adamantanamine]", "α9/α10 nAChR (Rattus norvegicus, UniProt P43144+Q9JLB5)", "IC50", "nM", 1300]
]}
